The reported measurements were obtained from paper PMC12040169.

Hi there, I'd appreciate the recorded viability at 28.5 h, 10 µM for every entry that follows.
- METHOD DESCRIPTION: in vitro
- PARTICULARS: human, hela cells, % viability
// unit must come after the numeric part

Exercise: Would you kindly share the measured viability at 28.5 h, 10 µM for O=C(Nc1ccc(S(=O)(=O)Nc2ncccn2)cc1)c1ccc(Cl)c([N+](=O)[O-])c1 [CBK263739] ?
Key: 101%

Exercise: Would you kindly share the measured viability at 28.5 h, 10 µM for OC(CSc1ccccc1)CN1CCN(Cc2ccc3c(c2)OCO3)CC1 (stereo not drawn) [CBK074761] ?
Key: 87.2%

Exercise: Would you kindly share the measured viability at 28.5 h, 10 µM for Cc1ccc2c(c1)cc(C(=O)N(C)CC1(C)COC1)n2C [CBK281723] ?
Key: 86.4%

Exercise: Would you kindly share the measured viability at 28.5 h, 10 µM for CCCNC(=O)C(C)NC(=O)C1=Cc2ccccc2OC1 (stereo not drawn) [CBK297937] ?
Key: 95.2%

Exercise: Would you kindly share the measured viability at 28.5 h, 10 µM for Nc1ccc(CCNC(=O)c2cnc(-c3cccc(C(F)(F)F)c3)c(-c3ccncc3)c2)cc1 [CBK037580] ?
Key: 90.8%

Exercise: Would you kindly share the measured viability at 28.5 h, 10 µM for Cc1nc(C)n(CC2CCCN(S(=O)(=O)c3cnc4ccsc4c3)C2)n1 (stereo not drawn) [CBK306274] ?
Key: 84.3%

Exercise: Would you kindly share the measured viability at 28.5 h, 10 µM for O=C(Nc1ccc(F)cc1)c1sccc1NS(=O)(=O)Cc1ccccc1 [CBK004574] ?
Key: 106%

Exercise: Would you kindly share the measured viability at 28.5 h, 10 µM for Cc1ccc(S(=O)(=O)c2cc3c(=O)n4ccccc4nc3n(CCCN3CCOCC3)c2=N)cc1 [CBK265590] ?
Key: 101%

Exercise: Would you kindly share the measured viability at 28.5 h, 10 µM for N#CCCn1cc(C(N)=O)c(-c2cc3ccccc3o2)n1 [CBK306204] ?
Key: 92.9%
